Target: wild-type HCV NS3/4A protease (GT1a) (Hepatitis C virus genotype 1a, UniProt P27958, C1185S)
Construct: His-tag (cleaved yes); made in house; host or cells: Escherichia coli BL21(DE3), PET28a vector
Sequence (P27958 1027-1208 C1185S): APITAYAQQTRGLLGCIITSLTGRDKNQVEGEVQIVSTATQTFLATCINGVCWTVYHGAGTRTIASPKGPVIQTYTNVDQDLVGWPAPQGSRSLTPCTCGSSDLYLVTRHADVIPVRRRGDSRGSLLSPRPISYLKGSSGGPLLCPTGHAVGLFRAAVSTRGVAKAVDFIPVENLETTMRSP
Experiment: biochemical
Format: biochemical
Details: Table 2; read-out: Ki WT (GT1a)
REPORTED_ENDPOINT: pKi
One number for each entry, as −log10 of the molar value.

[in] Name the reported pKi value associated with the compound COc1ccc2nc(C)c(O[C@@H]3C[C@H]4C(=O)N[C@]5(C(=O)NS(=O)(=O)C6(C)CC6)C[C@H]5/C=C\CCCCC[C@H](NC(=O)OC5(C)CCCC5)C(=O)N4C3)nc2c1 [JZ01-19]
[out] 8.95

* * *

Kindly state fold increase in potency against D168A compared to the parent compound for each of the entries shown.
Molecular target: HCV NS3/4A protease D168A variant (Hepatitis C virus genotype 1a, UniProt P27958, C1185S/D1194A)
Construct: His-tag (cleaved yes); made in house; host or cells: Escherichia coli BL21(DE3), PET28a vector
Sequence (P27958 1027-1208 C1185S/D1194A): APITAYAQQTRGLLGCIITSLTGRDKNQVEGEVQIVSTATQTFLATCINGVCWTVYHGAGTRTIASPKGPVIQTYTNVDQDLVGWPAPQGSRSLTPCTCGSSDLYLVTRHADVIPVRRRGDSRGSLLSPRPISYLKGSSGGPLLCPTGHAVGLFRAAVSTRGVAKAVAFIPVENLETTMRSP
Experiment: biochemical
Type: biochemical
Details: compared to parent compound

Solved cases (4 shown):
[[record]]
molecule = "COc1ccc2nc(C)c(O[C@@H]3C[C@H]4C(=O)N[C@]5(C(=O)NS(=O)(=O)C6(C)CC6)C[C@H]5/C=C\\CCCCC[C@H](NC(=O)OC5(C)CC5)C(=O)N4C3)nc2c1 [NR02-24]"
recorded_result = "~2 fold"

[[record]]
molecule = "COc1ccc2nc(C)c(O[C@@H]3C[C@H]4C(=O)N[C@]5(C(=O)NS(=O)(=O)C6(C)CC6)C[C@H]5/C=C\\CCCCC[C@H](NC(=O)OC5(C)CCCC5)C(=O)N4C3)nc2c1 [JZ01-19]"
recorded_result = "~3 fold"

[[record]]
molecule = "COc1ccc2nc(C)c(O[C@@H]3C[C@H]4C(=O)N[C@]5(C(=O)NS(=O)(=O)C6(C)CC6)C[C@H]5/C=C\\CCCCC[C@H](NC(=O)O[C@@H]5C[C@@H]6C[C@@H]6C5)C(=O)N4C3)nc2c1 [NR03-77]"
recorded_result = "26 fold"

[[record]]
molecule = "COc1ccc2nc(C)c(O[C@@H]3C[C@H]4C(=O)N[C@]5(C(=O)NS(=O)(=O)C6(C)CC6)C[C@H]5/C=C\\CCCCC[C@H](NC(=O)OC5CCCCC5)C(=O)N4C3)nc2c1 [NR03-67]"
recorded_result = "~3 fold"


Here's the next entry for you.
[in] Name the reported fold increase in potency against D168A compared to the parent compound value associated with the molecule CCC1(OC(=O)N[C@H]2CCCCC/C=C\[C@@H]3C[C@@]3(C(=O)NS(=O)(=O)C3(C)CC3)NC(=O)[C@@H]3C[C@@H](Oc4nc5cc(OC)ccc5nc4C)CN3C2=O)CCCC1 [NR01-97]
[out] ~3 fold

* * *

Kindly state Ki for each of the entries shown.
Biological target: HCV NS3/4A protease D168A variant (Hepatitis C virus genotype 1a, UniProt P27958, C1185S/D1194A)
Construct: His-tag (cleaved yes); made in house; host or cells: Escherichia coli BL21(DE3), PET28a vector
Assay: biochemical
Type: biochemical

Solved cases (4 shown):
[[record]]
molecule = "COC(=O)N[C@H](C(=O)N[C@H]1CCCCC/C=C\\[C@@H]2C[C@@]2(C(=O)NS(=O)(=O)C2(C)CC2)NC(=O)[C@@H]2C[C@@H](Oc3nc4cc(OC)ccc4nc3C)CN2C1=O)C1CCCCC1"
recorded_result = "9.68 nM"

[[record]]
molecule = "COc1ccc2nc(C)c(O[C@@H]3C[C@H]4C(=O)N[C@]5(C(=O)NS(=O)(=O)C6(C)CC6)C[C@H]5/C=C\\CCCCC[C@H](NC(=O)OCC5(C)CC5(F)F)C(=O)N4C3)nc2c1 (some centres unmarked)"
recorded_result = "4.7 nM"

[[record]]
molecule = "COc1ccc2nc(C)c(O[C@@H]3C[C@H]4C(=O)N[C@]5(C(=O)NS(=O)(=O)C6(C)CC6)C[C@H]5/C=C\\CCCCC[C@H](NC(=O)O[C@@H]5C[C@@H]6C[C@@H]6C5)C(=O)N4C3)nc2c1"
recorded_result = "2.3 nM"

[[record]]
molecule = "COc1ccc2nc(C(F)(F)F)c(O[C@@H]3C[C@H]4C(=O)N[C@]5(C(=O)NS(=O)(=O)C6(C)CC6)C[C@H]5/C=C\\CCCCC[C@H](NC(=O)OC5(C)CCC5)C(=O)N4C3)nc2c1"
recorded_result = "20.7 nM"


Here's the next entry for you.
[in] Name the reported Ki value associated with the molecule COc1ccc2nc(C)c(O[C@@H]3C[C@H]4C(=O)N[C@]5(C(=O)NS(=O)(=O)C6(C)CC6)C[C@H]5/C=C\CCCCC[C@H](NC(=O)O[C@H](C)C(F)(F)F)C(=O)N4C3)nc2c1
[out] 8 nM

* * *

Kindly state Ki for each of the entries shown.
Target: wild-type HCV NS3/4A protease (GT1a) (Hepatitis C virus genotype 1a, UniProt P27958, C1185S)
Construct: His-tag (cleaved yes); made in house; host or cells: Escherichia coli BL21(DE3), PET28a vector
Assay: biochemical
Assay type: biochemical
Numbers only, in nM.

[[record]]
line_notation = "COc1ccc2nc(C)c(O[C@@H]3C[C@H]4C(=O)N[C@]5(C(=O)NS(=O)(=O)C6(C)CC6)C[C@H]5/C=C\\CCCCC[C@H](NC(=O)[C@@H](NC(C)=O)C(C)C)C(=O)N4C3)nc2c1"
reported_endpoint = "Ki"
recorded_result = 11.1

[[record]]
line_notation = "COc1ccc2nc(C(F)(F)F)c(O[C@@H]3C[C@H]4C(=O)N[C@]5(C(=O)NS(=O)(=O)C6(C)CC6)C[C@H]5/C=C\\CCCCC[C@H](NC(=O)O[C@@H](C)C5CC5)C(=O)N4C3)nc2c1"
reported_endpoint = "Ki"
recorded_result = 10.4

[[record]]
line_notation = "COc1ccc2nc(C)c(O[C@@H]3C[C@H]4C(=O)N[C@]5(C(=O)NS(=O)(=O)C6(C)CC6)C[C@H]5/C=C\\CCCCC[C@H](NC(=O)OCC5(C)CC5)C(=O)N4C3)nc2c1"
reported_endpoint = "Ki"
recorded_result = 0.65


[in] Name the reported Ki value associated with the compound COc1ccc2nc(C)c(O[C@@H]3C[C@H]4C(=O)N[C@]5(C(=O)NS(=O)(=O)C6(C)CC6)C[C@H]5/C=C\CCCCC[C@H](NC(=O)O[C@@H]5CCC[C@H]5F)C(=O)N4C3)nc2c1
[out] 2.3

* * *

Molecular target: HCV NS3/4A protease GT3 (Hepatitis C virus genotype 3a)
Assay: biochemical
REPORTED_ENDPOINT: Ki (nM)
One number for each entry, in nM.

[[record]]
compound = "COc1ccc2nc(C(F)(F)F)c(O[C@@H]3C[C@H]4C(=O)N[C@]5(C(=O)NS(=O)(=O)C6(C)CC6)C[C@H]5/C=C\\CCCCC[C@H](NC(=O)O[C@@H]5C[C@@H]6C[C@@H]6C5)C(=O)N4C3)nc2c1"
recorded_result = 170

[[record]]
compound = "COc1ccc2nc(C(F)(F)F)c(O[C@@H]3C[C@H]4C(=O)N[C@]5(C(=O)NS(=O)(=O)C6(C)CC6)C[C@H]5/C=C\\CCCCC[C@H](NC(=O)OC5(C(F)(F)F)CCC5)C(=O)N4C3)nc2c1"
recorded_result = 133

[[record]]
compound = "COc1ccc2nc(C)c(O[C@@H]3C[C@H]4C(=O)N[C@]5(C(=O)NS(=O)(=O)C6(C)CC6)C[C@H]5/C=C\\CCCCC[C@H](NC(=O)O[C@H](C)C(F)(F)F)C(=O)N4C3)nc2c1"
recorded_result = 122

[[record]]
compound = "COc1ccc2nc(C(F)(F)F)c(O[C@@H]3C[C@H]4C(=O)N[C@]5(C(=O)NS(=O)(=O)C6(C)CC6)C[C@H]5/C=C\\CCCCC[C@H](NC(=O)OC5(C(F)(F)F)CCCC5)C(=O)N4C3)nc2c1"
recorded_result = 414


[in] Name the reported Ki value associated with the compound COc1ccc2nc(C(F)(F)F)c(O[C@@H]3C[C@H]4C(=O)N[C@]5(C(=O)NS(=O)(=O)C6(C)CC6)C[C@H]5/C=C\CCCCC[C@H](NC(=O)OCC5(C)CC5(F)F)C(=O)N4C3)nc2c1 (some centres unmarked)
[out] 336

* * *

Biological target: HCV NS3/4A protease GT3 (Hepatitis C virus genotype 3a, UniProt Q81495)
Sequence (Q81495 1033-1214): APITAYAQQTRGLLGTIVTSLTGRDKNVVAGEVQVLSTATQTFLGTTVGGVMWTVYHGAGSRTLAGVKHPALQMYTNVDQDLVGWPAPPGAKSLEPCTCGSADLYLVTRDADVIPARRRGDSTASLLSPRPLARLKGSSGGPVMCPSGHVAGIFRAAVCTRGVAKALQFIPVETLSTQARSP
Sequence (Q81495 1664-1717): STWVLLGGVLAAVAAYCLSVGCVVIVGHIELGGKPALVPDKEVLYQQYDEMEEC
Experiment: biochemical
Kindly state pKi for each of the entries shown.
One number for each entry, as −log10 of the molar value.

Solved cases (4 shown):
[[record]]
molecule = "COc1ccc2nc(C)c(O[C@@H]3C[C@H]4C(=O)N[C@]5(C(=O)NS(=O)(=O)C6(C)CC6)C[C@H]5/C=C\\CCCCC[C@H](NC(=O)OCC5(C)CC5(F)F)C(=O)N4C3)nc2c1 (some centres unmarked)"
recorded_result = 7.00

[[record]]
molecule = "COc1ccc2nc(C)c(O[C@@H]3C[C@H]4C(=O)N[C@]5(C(=O)NS(=O)(=O)C6(C)CC6)C[C@H]5/C=C\\CCCCC[C@H](NC(=O)OC5(C(F)(F)F)CCCC5)C(=O)N4C3)nc2c1"
recorded_result = 6.98

[[record]]
molecule = "COc1ccc2nc(C(F)(F)F)c(O[C@@H]3C[C@H]4C(=O)N[C@]5(C(=O)NS(=O)(=O)C6(C)CC6)C[C@H]5/C=C\\CCCCC[C@H](NC(=O)O[C@@H](C)C(F)(F)F)C(=O)N4C3)nc2c1"
recorded_result = 6.24

[[record]]
molecule = "COc1ccc2nc(C)c(O[C@@H]3C[C@H]4C(=O)N[C@]5(C(=O)NS(=O)(=O)C6(C)CC6)C[C@H]5/C=C\\CCCCC[C@H](NC(=O)O[C@@H]5C[C@@H]6C[C@@H]6C5)C(=O)N4C3)nc2c1"
recorded_result = 7.41


Here's the next entry for you.
[in] Name the reported pKi value associated with the molecule COc1ccc2nc(C(F)(F)F)c(O[C@@H]3C[C@H]4C(=O)N[C@]5(C(=O)NS(=O)(=O)C6(C)CC6)C[C@H]5/C=C\CCCCC[C@H](NC(=O)O[C@@H](C)C5CC5)C(=O)N4C3)nc2c1
[out] 6.39

Hey, just so you know, these numbers are from patent US12441762B2.
